Measured on: Cholecystokinin B receptor (Cavia porcellus)
Assay name: In vitro binding for inhibition of [125I]- Bolton-Hunter-CCK-8 binding in guinea pig cortex
Square brackets hold non-standard residues; d marks the D form. Peptide text beside a SMILES is read from it. * marks the point of attachment. Acryloyl(3-(3-pyridyl),E) = O=C(/C=C/c1cccnc1)*; NMeF = CN[C@@H](Cc1ccccc1)C(=O)O; NMeD = CN[C@@H](CC(=O)O)C(=O)O; X1 = O=C(/C=C/c1ccc(O)cc1)*; X2 = O=C(/C=C/c1cccs1)*; Boc = CC(C)(C)OC(=O)*
Define the label as criterion met when IC50 is strictly less than 5 µM and as criterion not met in all remaining cases.

{"Compound": "CN(C(=O)[C@H](CCCCNC(=O)/C=C/c1cccs1)NC(=O)[C@H](Cc1c[nH]c2ccccc12)NC(=O)OC(C)(C)C)[C@@H](CC(=O)O)C(=O)N[C@@H](Cc1ccccc1)C(N)=O (Boc-WK(X2)[NMeD]F-NH2)", "Classification": "criterion met"}
{"Compound": "CN(C(=O)[C@H](CC(=O)O)NC(=O)[C@H](CCCCNC(=O)/C=C/c1cccs1)NC(=O)[C@H](Cc1c[nH]c2ccccc12)NC(=O)OC(C)(C)C)[C@@H](Cc1ccccc1)C(N)=O (Boc-WK(X2)D[NMeF]-NH2)", "Classification": "criterion met"}
{"Compound": "CN(C(=O)[C@H](CCCCNC(=O)/C=C/c1cccnc1)NC(=O)[C@H](Cc1c[nH]c2ccccc12)NC(=O)OC(C)(C)C)[C@@H](CC(=O)O)C(=O)N[C@@H](Cc1ccccc1)C(N)=O (Boc-WK(Acryloyl(3-(3-pyridyl),E))[NMeD]F-NH2)", "Classification": "criterion not met"}
{"Compound": "CN(C(=O)[C@H](CCCCNC(=O)/C=C/c1ccc(O)cc1)NC(=O)[C@H](Cc1c[nH]c2ccccc12)NC(=O)OC(C)(C)C)[C@@H](CC(=O)O)C(=O)N[C@@H](Cc1ccccc1)C(N)=O (Boc-WK(X1)[NMeD]F-NH2)", "Classification": "criterion not met"}
{"Compound": "CN(C(=O)[C@H](CCCCNC(=O)/C=C/c1ccc(O)cc1)NC(=O)[C@H](Cc1c[nH]c2ccccc12)NC(=O)OC(C)(C)C)[C@@H](CC(=O)O)C(=O)N(C)[C@@H](Cc1ccccc1)C(N)=O (Boc-WK(X1)[NMeD][NMeF]-NH2)", "Classification": "criterion not met"}
{"Compound": "CN(C(=O)[C@H](CC(=O)O)NC(=O)[C@H](CCCCNC(=O)/C=C/c1cccnc1)NC(=O)[C@H](Cc1c[nH]c2ccccc12)NC(=O)OC(C)(C)C)[C@@H](Cc1ccccc1)C(N)=O (Boc-WK(Acryloyl(3-(3-pyridyl),E))D[NMeF]-NH2)", "Classification": "criterion met"}
{"Compound": "CN(C(=O)[C@H](CCCCNC(=O)/C=C/c1cccs1)NC(=O)[C@H](Cc1c[nH]c2ccccc12)NC(=O)OC(C)(C)C)[C@@H](CC(=O)O)C(=O)N(C)[C@@H](Cc1ccccc1)C(N)=O (Boc-WK(X2)[NMeD][NMeF]-NH2)", "Classification": "criterion not met"}
